biological target: T1, human CGRP receptor extracellular domain (ECD) (human, UniProt Q16602 23-138; O60894 27-117); assay: yeast-displayed Fab, FACS, 1 nM human CGRP receptor ECD
T1 construct: also called CGRP receptor ECD; human CGRP receptor ECD
T1 sequence (Q16602 23-138 limits assumed, chain 1 of 2): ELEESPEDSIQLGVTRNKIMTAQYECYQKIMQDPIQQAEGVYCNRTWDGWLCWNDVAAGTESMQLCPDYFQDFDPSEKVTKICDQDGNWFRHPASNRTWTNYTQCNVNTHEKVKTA
T1 sequence (O60894 27-117 limits assumed, chain 2 of 2): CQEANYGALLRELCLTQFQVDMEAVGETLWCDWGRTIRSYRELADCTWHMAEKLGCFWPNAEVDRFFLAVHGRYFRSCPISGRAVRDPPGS
What Normalized Binding Signal/Display Signal (B/D) was measured for each of the following?
Give bare numbers, in ratio.

anti-CGRP receptor variant 04, yeast-displayed Fab (Fab, V domains shown, also called Variant Ab ID 04) VH: QVQLVESGGGVVQPGRSLRLSCAASGFTFSSFGMHWVRQAPGKGLEWVAVISFDGSIKYSVDSVKGRFTISRDNSKNTLFLQMNSLRAEDTAVYYCARDRLNYYRSFGYYGYHYYGMAVWGQGTTVTVSS VL: QSVLTQPPSVSAAPGQKVTISCSGSSSNIGNNYVSWYQQLPGTAPKLLIYDNNKRPSGIPDRFSGSKSGTSATLGITGLQTGDEADYYCGTWDSRLSAVVFGGGTKLTVLG
0.2
anti-CGRP receptor variant 15, yeast-displayed Fab (Fab, V domains shown, also called Variant Ab ID 15) VH: QVQLVESGGGVVQPGRSLRLSCAASGFTFSSFGMHWVRQAPGKGLEWVAVISFDGSIKYSVDSVKGRFTISRDNSKNTLFLQMNSLRAEDTAVYYCARDRLNYYESSGYYHYKYYGMAVWGQGTTVTVSS VL: QSVLTQPPSVSAAPGQKVTISCSGSSSNIGNNYVSWYQQLPGTAPKLLIYDNNKRPSGIPDRFSGSKSGTSATLGITGLQTGDEADYYCGTWDWWRKAVIFGGGTKLTVLG
0.16
anti-CGRP receptor variant 13, yeast-displayed Fab (Fab, V domains shown, also called Variant Ab ID 13) VH: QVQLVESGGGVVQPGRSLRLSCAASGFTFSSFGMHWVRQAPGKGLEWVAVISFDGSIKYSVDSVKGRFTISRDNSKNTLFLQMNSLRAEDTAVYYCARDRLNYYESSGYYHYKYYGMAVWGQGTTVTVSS VL: QSVLTQPPSVSAAPGQKVTISCSGSRSNIGRRTVSWYQQLPGTAPKLLIYDNNKRPSGIPDRFSGSKSGTSATLGITGLQTGDEADYYCGTWDSRLSAVVFGGGTKLTVLG
0.35

// below: Normalized Binding Signal/Display Signal (B/D) requested for another binder
Any idea what its Normalized Binding Signal/Display Signal (B/D) is? The binder is anti-CGRP receptor variant 14, yeast-displayed Fab (Fab, V domains shown, also called Variant Ab ID 14) VH: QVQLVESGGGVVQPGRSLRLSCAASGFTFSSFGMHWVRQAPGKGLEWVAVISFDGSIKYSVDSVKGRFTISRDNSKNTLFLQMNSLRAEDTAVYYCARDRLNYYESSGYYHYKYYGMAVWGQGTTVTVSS VL: QSVLTQPPSVSAAPGQKVTISCSGSSSNIGNNYVSWYQQLPGTAPKLLIYDNNKRPSGIPDRFSGSKSGTSATLGITGLQTGDEADYYCGTWDSWHRVVTFGGGTKLTVLG
0.12

// data source = patent US20220363770A1
